The measurements presented in this section are drawn from the supplement of paper PMC12636033.

Collected PBM 8-mer E-score values appear next to each entry.
- Tested on: muMax20 (Max(13-93) K31hArg/K57hArg, M65Nle)
- experiment.summary: PBM 8-mer E-score (E-score (rank enrichment, -0.5 to 0.5)); higher = stronger preferential binding
Over roughly 33,000 sequences, “E-score (rank enrichment, -0.5 to 0.5)” has its median near -0.0068; the highest 2% begin near 0.24. The entries come from a sample that favours the highest values as a whole.
Reply briefly: the number, and no unit.

Reference set (5 entries):
AACGCGTA ... 0.0549
ACCGCGTG ... 0.294
CCCGAGCA ... 0.00085
GGACTGTA ... 0.00313
AGCCGGTC ... -0.295

Lookup: Specify the recorded PBM 8-mer E-score for GATGCTGA , system: muMax20 (Max(13-93) K31hArg/K57hArg, M65Nle).
Found: -0.131

Lookup: Tell me its PBM 8-mer E-score on muMax20 (Max(13-93) K31hArg/K57hArg, M65Nle): ATCCTTTG
Found: 0.0245

Lookup: Provide PBM 8-mer E-score, tested on muMax20 (Max(13-93) K31hArg/K57hArg, M65Nle), for AACGCGTG .
Found: 0.144

Lookup: Report PBM 8-mer E-score from muMax20 (Max(13-93) K31hArg/K57hArg, M65Nle) testing of ACCAACAC
Found: 0.174

Lookup: Write down the reported PBM 8-mer E-score (system: muMax20 (Max(13-93) K31hArg/K57hArg, M65Nle)) of AACCATTG
Found: -0.0386

Lookup: Report its PBM 8-mer E-score with muMax20 (Max(13-93) K31hArg/K57hArg, M65Nle) as the test system: AAGGAGAA
Found: 0.172

* * *

- Test system: muMax20 (Max(13-93) K31hArg/K57hArg, M65Nle)
- experiment.summary: PBM 8-mer E-score (E-score (rank enrichment, -0.5 to 0.5)); higher = stronger preferential binding
The full ranking holds about 33,000 sequences; the median of “E-score (rank enrichment, -0.5 to 0.5)” is about -0.0068, and the highest 2% start at about 0.24. Only a selection was taken, and the highest values are over-represented in it overall.
// reported PBM 8-mer E-score per item

ACGTGTGC ... 0.297
ACGTGTGG ... 0.227

Lookup: Tell me its PBM 8-mer E-score given ATGTGAAA as the entry.
Found: 0.317

Lookup: Output measured PBM 8-mer E-score for this item: CTGTGAAA
Found: 0.0471

Lookup: Give the reported value of PBM 8-mer E-score for this record: GTGTGAAA
Found: 0.141

Lookup: # return recorded PBM 8-mer E-score for input ACGCGTGA
Found: 0.148

Lookup: Consider the sequence ACGCGTGG and give its recorded PBM 8-mer E-score.
Found: 0.183

* * *

- Test system: muMax20 (Max(13-93) K31hArg/K57hArg, M65Nle)
- experiment.summary: PBM 8-mer E-score (E-score (rank enrichment, -0.5 to 0.5)); higher = stronger preferential binding
Whole data set: some 33,000 sequences, median “E-score (rank enrichment, -0.5 to 0.5)” near -0.0068, cut for the highest 2% near 0.24. Many of the other results were omitted from the sample, so the highest values are more common in it than they were.
Each entry below carries its recorded PBM 8-mer E-score.
Output spec: single numeric token, no unit.

CCTAAATA ... 0.123
CGTAAATA ... 0.0359
AACGGCCG ... -0.0126
TAAAAATA ... 0.131

Lookup: # lookup: muMax20 (Max(13-93) K31hArg/K57hArg, M65Nle) PBM 8-mer E-score, key = GCACGTGC
Found: 0.454

Lookup: Supply PBM 8-mer E-score measured with muMax20 (Max(13-93) K31hArg/K57hArg, M65Nle) for GACATATC .
Found: 0.135

Lookup: Provide PBM 8-mer E-score, system muMax20 (Max(13-93) K31hArg/K57hArg, M65Nle), entry CATGGTCA
Found: 0.304

Lookup: Look up muMax20 (Max(13-93) K31hArg/K57hArg, M65Nle) data: PBM 8-mer E-score of AACGTGTA , then report it.
Found: 0.2

Lookup: Lab note: record PBM 8-mer E-score of TACATAGA tested on muMax20 (Max(13-93) K31hArg/K57hArg, M65Nle).
Found: 0.163

Lookup: Under muMax20 (Max(13-93) K31hArg/K57hArg, M65Nle): report PBM 8-mer E-score of ACAACCAC .
Found: 0.033

Lookup: Give the observed PBM 8-mer E-score of CTTAAATA for muMax20 (Max(13-93) K31hArg/K57hArg, M65Nle).
Found: 0.0909

Lookup: Given CACACATA , report its PBM 8-mer E-score on muMax20 (Max(13-93) K31hArg/K57hArg, M65Nle).
Found: 0.12

Lookup: State measured PBM 8-mer E-score of the sequence AATATTAC with muMax20 (Max(13-93) K31hArg/K57hArg, M65Nle).
Found: 0.281

Lookup: Report value only: PBM 8-mer E-score, muMax20 (Max(13-93) K31hArg/K57hArg, M65Nle), TGTATTAA
Found: 0.184

Lookup: Enter measured PBM 8-mer E-score, system muMax20 (Max(13-93) K31hArg/K57hArg, M65Nle), for the sequence shown: AATTATAT
Found: 0.147

Lookup: Send back muMax20 (Max(13-93) K31hArg/K57hArg, M65Nle) PBM 8-mer E-score of CACATATG only.
Found: 0.131

Lookup: Give reported PBM 8-mer E-score for AACATTGT (muMax20 (Max(13-93) K31hArg/K57hArg, M65Nle))
Found: 0.236

* * *

- Tested on: muMax20 (Max(13-93) K31hArg/K57hArg, M65Nle)
- experiment.summary: PBM 8-mer E-score (E-score (rank enrichment, -0.5 to 0.5)); higher = stronger preferential binding
Over roughly 33,000 sequences, “E-score (rank enrichment, -0.5 to 0.5)” has its median near -0.0068; the highest 2% begin near 0.24. For the sample, the highest values were picked, then their nearest neighbours and some sequences at random.
Listed sequences paired with reported PBM 8-mer E-score
// return just the number, without any unit appended

Worked set:
AGCCCCTC ... 0.0302
AATGATGT ... 0.0444

Lookup: Look up muMax20 (Max(13-93) K31hArg/K57hArg, M65Nle) data: PBM 8-mer E-score of AATATAAA , then report it.
Found: 0.324

Lookup: Report its PBM 8-mer E-score with muMax20 (Max(13-93) K31hArg/K57hArg, M65Nle) as the test system: AAAATCAA
Found: 0.0939

Lookup: Provide PBM 8-mer E-score, recorded with muMax20 (Max(13-93) K31hArg/K57hArg, M65Nle), of CTTGAGTC
Found: -0.0129

Lookup: Check muMax20 (Max(13-93) K31hArg/K57hArg, M65Nle) data and give PBM 8-mer E-score for AACACCAA .
Found: 0.239

Lookup: Write down the reported PBM 8-mer E-score (system: muMax20 (Max(13-93) K31hArg/K57hArg, M65Nle)) of TAAATCAA
Found: 0.261

* * *

- Test system: muMax20 (Max(13-93) K31hArg/K57hArg, M65Nle)
- experiment.summary: PBM 8-mer E-score (E-score (rank enrichment, -0.5 to 0.5)); higher = stronger preferential binding
The full ranking holds about 33,000 sequences; the median of “E-score (rank enrichment, -0.5 to 0.5)” is about -0.0068, and the highest 2% start at about 0.24. Shown is part of a subset that was picked to be rich in the highest values.
outcome.measure: PBM 8-mer E-score
Form rule: numeric answer, no unit written next to it.

Below are worked cases with known answers.
CCAACCAG ... -0.16
GTTCAATA ... 0.159
CTACTTTA ... 0.0793
AACCAGTT ... 0.0717

Lookup: Recall and state the measured PBM 8-mer E-score for GTTCCCGA .
Found: -0.272

Lookup: Indicate the recorded PBM 8-mer E-score value for this sequence: ATGTATTA
Found: 0.22

Lookup: Identify measured PBM 8-mer E-score corresponding to AAGACACG
Found: 0.293

Lookup: Complete the entry with PBM 8-mer E-score for ATACTTTG
Found: 0.107

Lookup: Answer with reported PBM 8-mer E-score of ATACTTTA
Found: 0.279

Lookup: // Input: GGAGAACC . Output its PBM 8-mer E-score only.
Found: -0.142

Lookup: Return PBM 8-mer E-score for the following sequence: AAGCTGTA
Found: 0.111

Lookup: Consider the sequence AAGATGAG . State its measured PBM 8-mer E-score.
Found: -0.0108

Lookup: Read off the recorded PBM 8-mer E-score for CACGTATC
Found: 0.158
